We begin with a simple list: items and their reported GI50.
experiment: Growth inhibition of human p53 deficient H1299 cells after 7 days by celltiter-glo assay
Assay type: functional
measurement.context: NCI-H1299, 168 h
Write the answer as a number in nM, unit excluded.

# annotated cases, reported GI50 shown
INSERT INTO assay_data (molecule, result_units, test_value) VALUES
  ('CON(CCCc1ccc(N(CCCl)CCCl)cc1)[C@@H]1O[C@H](COCc2ccccc2)[C@@H](OCc2ccccc2)[C@H]1OCc1ccccc1', 'nM', 82000),
  ('CON(CCCc1ccc(N(CCCl)CCCl)cc1)C1OC[C@@H](O)[C@@H](O)[C@@H]1O (stereo partly drawn)', 'nM', 730),
  ('C[C@H]1OC(N(O)CCCc2ccc(N(CCCl)CCCl)cc2)[C@H](O)[C@@H](O)[C@H]1O (stereo partly drawn)', 'nM', 2600),
  ('CON(CCCc1ccc(N(CCCl)CCCl)cc1)C1O[C@@H](C)[C@@H](O)[C@@H](O)[C@@H]1O (stereo partly drawn)', 'nM', 1200),
  ('CON(CCCc1ccc(N(CCCl)CCCl)cc1)[C@@H]1O[C@H](CO)[C@@H](O)[C@H](F)[C@H]1O', 'nM', 1300),
  ('CON(CCCc1ccc(N(CCCl)CCCl)cc1)C1O[C@H](C)[C@H](O)[C@H](O)[C@H]1O (stereo partly drawn)', 'nM', 3500),
  ('CON(CCCc1ccc(N(CCCl)CCCl)cc1)[C@@H]1OC[C@@H](O)[C@H]1O', 'nM', 1100);

Shifting focus to the molecule that follows.
Prompt: # lookup: GI50 of CON(CCCc1ccc(N(CCCl)CCCl)cc1)C1OC[C@@H](O)[C@H](O)[C@@H]1O (stereo partly drawn)
Completion: 760

Reference for the values: ChEMBL document CHEMBL1275392
